tested on: HUVECs exposed to oxLDL; test: NO and ONOO^− release from HUVECs exposed to oxLDL, nanosensors (Example 8); assay type: cell-based, human; conditions: oxLDL 20 min, then treatment for 1 hour; EPA 10 μM, ATM 1.0 μM
recorded.endpoint: NO
State the value, then name its unit.

The molecule listed as Cc1ccc(C)c(OCCCC(C)(C)C(=O)O)c1 has a reported NO of 192 ± 34 nM

Sure, the documented NO for O=C(O)c1cccnc1 is 431 ± 100 nM

NO in this record for CC/C=C\C/C=C\C/C=C\C/C=C\C/C=C\C/C=C\CCC(=O)O : 567 ± 103 nM

The recorded NO for CC/C=C\C/C=C\C/C=C\C/C=C\C/C=C\CCCC(=O)O [EPA, cis-5,8,11,14,17-eicosapentaenoic acid] is 423 ± 163 nM

---

Exercise: for every item that follows, state its recorded ONOO^−.
system: HUVECs; experiment: NO and ONOO^− release from HUVECs pretreated with agents, then exposed to oxLDL (Example 11, Objective 1); type: cell-based, human; conditions: pretreatment 30 min, agents at 10 μM; then oxLDL 11 mg/dL up to 3 hr; calcium ionophore 1.0 μM
Give the figure only, with no unit attached.

Data point: Cc1ccc(C)c(OCCCC(C)(C)C(=O)O)c1 [gemfibrozil] ; ONOO^− = 228

So, CC/C=C\C/C=C\C/C=C\C/C=C\C/C=C\CCCC(=O)O [EPA, cis-5,8,11,14,17-eicosapentaenoic acid] ? Its ONOO^− was 228

Per the records, this compound ( O=C(O)c1cccnc1 [niacin, nicotinic acid] ) has ONOO^− equal to 238

The reported ONOO^− of the compound CC/C=C\C/C=C\C/C=C\C/C=C\C/C=C\C/C=C\CCC(=O)O [DHA, docosahexaenoic acid] was 229

---

experiment: Membrane cholesterol domain peak intensity, x-ray diffraction of POPC/cholesterol membranes (Example 9); settings: drug-to-phospholipid mole ratio 1:30; POPC and cholesterol, 1.5:1 C/P mole ratio
Under this convention, true denotes Relative Cholesterol Domain Preak Intensity strictly below 20 and false denotes Relative Cholesterol Domain Preak Intensity at or above 20.

Input: In the record for CC/C=C\C/C=C\C/C=C\CCCCCCCC(=O)O , is Relative Cholesterol Domain Preak Intensity less than 20?
Output: false

Input: Input Cc1ccc(C)c(OCCCC(C)(C)C(=O)O)c1 ; condition: Relative Cholesterol Domain Preak Intensity strictly below 20. Does it hold?
Output: false

Input: Is it true that Relative Cholesterol Domain Preak Intensity reported for O=C(O)c1cccnc1 is less than 20?
Output: false

Input: Report whether reported Relative Cholesterol Domain Preak Intensity is lower than 20 (strictly) for CC/C=C\C/C=C\C/C=C\C/C=C\C/C=C\CCCC(=O)O [EPA, cis-5,8,11,14,17-eicosapentaenoic acid]
Output: true

Input: Answer whether the compound CCCCC/C=C\C/C=C\C/C=C\C/C=C\CCCC(=O)O has Relative Cholesterol Domain Preak Intensity strictly less than 20
Output: false

Input: Strictly below 20: is that where Relative Cholesterol Domain Preak Intensity of CC1(C)[C@@H](O[C@H]2O[C@H](C(=O)O)[C@@H](O)[C@H](O)[C@H]2O[C@@H]2O[C@H](C(=O)O)[C@@H](O)[C@H](O)[C@H]2O)CC[C@]2(C)[C@H]3C(=O)C=C4[C@@H]5C[C@@](C)(C(=O)O)CC[C@]5(C)CC[C@@]4(C)[C@]3(C)CC[C@@H]12 sits?
Output: true

---

Field: NO. Provide a value for each of the molecules that follow.
test system: HUVECs; test: NO and ONOO^− release from HUVECs pretreated with agents, then exposed to oxLDL (Example 11, Objective 1); format: cell-based, human; conditions: pretreatment 30 min, agents at 10 μM; then oxLDL 11 mg/dL up to 3 hr; calcium ionophore 1.0 μM

Query CC/C=C\C/C=C\C/C=C\C/C=C\C/C=C\C/C=C\CCC(=O)O yields NO of 378 ± 5

The value of NO measured for the molecule Cc1ccc(C)c(OCCCC(C)(C)C(=O)O)c1 turned out to be 377 ± 24

Measured NO of O=C(O)c1cccnc1 : 346 ± 17

Reported NO of CC/C=C\C/C=C\C/C=C\C/C=C\C/C=C\CCCC(=O)O [EPA, cis-5,8,11,14,17-eicosapentaenoic acid] : 394 ± 43
